- System under test: Replicase polyprotein 1ab (Severe acute respiratory syndrome coronavirus 2, UniProt P0DTD1)
- Measurement description: Functional biochemical assay to identify treatments for viral infectious disease that targets SARS-COV-2 nsp3 macrodomain, whereby the mechanism of action displaces an ADP-Ribose modified peptide from the binding site. Utilizing a time-resolved fluorescence method to measure binding by reading the emitted fluorescence intensity in two wavelengths.
pIC50: −log10 of the molar value.
In this section we review reported pIC50 values for a set of compounds.

# example entries with known answers
Mol smiles | Reading
CC(C)[C@@H](Nc1cc(N2CCNCC2)ncn1)c1ccc2c(c1)S(=O)(=O)CCC2 | < 4.00
CC(C)[C@@H](Nc1ncnc(N2CCCC2)n1)c1ccc2c(c1)S(=O)(=O)CCC2 | < 4.00
CC(C)[C@@H](Nc1ncnc2[nH]c(-c3ccc4c(c3)C(C)(C)C(=O)N4)cc12)c1ccc2c(c1)S(=O)(=O)CCC2 | 6.48
Cc1[nH]c2ncnc(NC(=O)c3ccc(C(F)(F)F)nc3)c2c1C | < 4.00
CC(C)[C@@H](NC(=O)c1c[nH]c2c(NC(=O)NC3CC3)cccc12)C(F)F | < 4.00
CC(C)[C@H](Nc1ncnc(-n2cccn2)n1)c1ccc2c(c1)S(=O)(=O)CCC2 | < 4.00
Cc1ccc(C(=O)Nc2ncnc3[nH]c(C)c(C)c23)cn1 | < 4.00
Cc1ncc(CCNC(=O)c2csc3c(NC(=O)NC4CC4)ncnc23)s1 | < 4.00

Please report the recorded pIC50 for `Cc1[nH]c2ncnc(NC(=O)[C@@H]3Cc4ccccc4CO3)c2c1C` . < 4.00

Please report the recorded pIC50 for `O=C(OCc1ccc(Cl)nc1)c1ncnc2[nH]ccc12` . < 4.00

====

- System under test: Replicase polyprotein 1ab (Severe acute respiratory syndrome coronavirus 2, UniProt P0DTD1)
- Measurement description: Functional biochemical assay to identify treatments for viral infectious disease that targets SARS-COV-2 nsp3 macrodomain, whereby the mechanism of action displaces an ADP-Ribose modified peptide from the binding site. Utilizing a time-resolved fluorescence method to measure binding by reading the emitted fluorescence intensity in two wavelengths.
Quantity kind: IC50 (µM)
Just the number please, in µM, no unit attached.

Mol smiles | Unit of measurement | IC50
CC(C)[C@@H]1C(=O)NCCN1c1ncnc2[nH]ccc12 | µM | 35.3
CC(C)[C@@H](Nc1ncnc2[nH]c(-c3ccnc(OCCN(C)C)c3)cc12)c1ccc2c(c1)S(=O)(=O)CCC2 | µM | 0.114

Please report the recorded IC50 for `CC(C)(C)[C@H](Nc1ncnc2[nH]c(-c3cnn(CC(N)=O)c3)cc12)c1ccc2c(c1)OCCO2` . 0.122

====

In this section we review reported pIC50 values for a set of compounds.
- System under test: UniProt P0DTD1
- Measurement description: Functional biochemical assay to identify treatments for viral infectious disease that targets SARS-COV-2 nsp3 macrodomain, whereby the mechanism of action displaces an ADP-Ribose modified peptide from the binding site. Utilizing a time-resolved fluorescence method to measure binding by reading the emitted fluorescence intensity in two wavelengths.
pIC50: −log10 of the molar value.

# example entries with known answers
Mol smiles | pIC50
CC(C)[C@H](Nc1cc(N2CCOCC2)ncn1)c1ccc2c(c1)S(=O)(=O)CCC2 | < 4.00
Cc1cnn(-c2ccc(-c3cc4c(N[C@@H](c5ccc6c(c5)OCCO6)C(C)C)ncnc4[nH]3)cc2)c1 | < 4.00
O=C(Nc1ccc(C(=O)N[C@@H]2c3ccccc3C[C@@H]2C(=O)O)cc1)c1ccc(C(=O)NC2CC2)cc1 | < 4.00
CC(C)[C@H](Nc1ncnc2[nH]ccc12)c1ccc2c(c1)NC(=O)CO2 | < 4.00

Please report the recorded pIC50 for `CC(C)[C@@H](Nc1ccncn1)c1ccc2c(c1)S(=O)(=O)CCC2` . < 4.00
